System: HT-29
PROCEDURE SUMMARY: SRB colorimetric assay of cell growth and viability, HT-29
Format: cell-based, human
EXPERIMENTAL PARAMETERS: 48 hours exposure, SRB; read-out: LC50 HT-29
Kindly supply the reported CC50 values for the records listed here.
Value expressed in nM; do not type the unit.

Problem: For the compound shown here, C/C=C1\NC(=O)[C@H](Cc2ccccc2)N(C)C(=O)[C@@H](C(C)C)NC(=O)[C@@H]([C@@H](C)CC)NC(=O)[C@H](NC(=O)[C@H](NC(=O)[C@H](CCCN)NC(=O)[C@H]2CCCN2C(=O)[C@H](NC(=O)[C@@H](NC(=O)[C@@H](NC(=O)[C@H](NC(=O)CC[C@@H](C)CC)C(C)C)[C@@H](C)O)C(C)C)C(C)C)[C@@H](C)CC)[C@@H](C)OC(=O)[C@H](C(C)C)NC1=O [Compound 80, [NMePhe^3, (4S)-MeHex^14]-KF] , give the reported CC50.
Result: 1200

Problem: For the compound shown here, C/C=C1\NC(=O)[C@H](Cc2ccc([N+](=O)[O-])cc2)NC(=O)[C@@H](C(C)C)NC(=O)[C@@H]([C@@H](C)CC)NC(=O)[C@H](NC(=O)[C@H](NC(=O)[C@H](CCCN)NC(=O)[C@H]2CCCN2C(=O)[C@H](NC(=O)[C@@H](NC(=O)[C@@H](NC(=O)[C@H](NC(=O)CC[C@@H](C)CC)C(C)C)[C@@H](C)O)C(C)C)C(C)C)[C@@H](C)CC)[C@@H](C)OC(=O)[C@H](C(C)C)NC1=O [Compound 73, [Phe(4-NO2)^3, (4S)-MeHex^14]-KF] , give the reported CC50.
Result: 426
